Ref: a melting point compilation (Tetko et al.; mined from patent text by program, amines drawn as free bases though some values may be those of a salt)

Please provide measured melting point for the entries that follow.

For the compound CCN1C(=O)C(C)(C)C(=O)N(C)c2cc(CN(CCn3cc(C)c4oc(C)cc4c3=O)Cc3cc(C)n(C)n3)ccc21 , give its reported melting point.
113 to 116 °C

For the compound Cc1cc2[nH]c(=O)c3cnc(O)cc3n2n1 , give its reported melting point.
> 300 °C

For the compound Cc1c(NC(=O)CC(C)(C)C)c(C)c2c(c1-c1cncnc1)OCC2c1ccc(C(C)C)cc1 (stereo not given) , give its reported melting point.
167 to 169 °C

For the compound Cc1c(-c2cc(Br)c(O)c(Br)c2)oc2ccc(OP(=O)(O)O)cc2c1=O , give its reported melting point.
258 to 260 °C

For the compound COc1ccc(CCNC(=O)c2nc(N)sc2-c2ccncc2)cc1OC , give its reported melting point.
167 to 168 °C

For the compound CCOC(=O)Cc1c(C(=O)OCC)c(CC)cn1C , give its reported melting point.
65 to 67 °C

For the compound CS(=O)CCNC(=O)c1cc2cc(S(N)(=O)=O)sc2s1 (stereo not given) , give its reported melting point.
242 to 243 °C

For the compound O=C(O)C1Cc2c(cc(Cl)c3c(-c4ccccc4F)noc23)O1 (stereo not given) , give its reported melting point.
191 to 193 °C

For the compound O=[N+]([O-])c1ccc(C#CCCN2CC=C(c3ccccc3)CC2)nc1 , give its reported melting point.
133 to 134 °C

For the compound CCc1nc2c(N)nc3ccccc3c2n1CCOCCNC(=O)Nc1ccccc1 , give its reported melting point.
141 to 144 °C

###

Please provide measured melting point for the entries that follow.

For the molecule Cc1cc(NC(=O)c2cnoc2C2CC2)ccc1Br , give its reported melting point.
133 to 135 °C

For the molecule CCN(CC)CCOc1ccc(N(C(=O)Nc2ccccc2)C2=NN(c3ccccc3)CC2)cc1 , give its reported melting point.
140 to 141 °C

For the molecule CCCCCCCCCCCCSCCOc1ccc(CCC(=O)O)cc1 , give its reported melting point.
68 to 69 °C

For the molecule CC1CN(c2c(F)cc3c(=O)c(C(=O)O)cn(C4CC4)c3c2Cl)CC1CN (stereo not given) , give its reported melting point.
235 to 238 °C

For the molecule CCCN1c2ccccc2C(=O)N(CC(=O)O)c2cc(Cc3c[nH]c4ccccc34)ccc21 , give its reported melting point.
160 to 170 °C

For the molecule OCc1cn(-c2ccc(F)c(C(F)F)c2)cn1 , give its reported melting point.
133 to 134 °C

For the molecule COC(=S)c1ccc(-c2ccccc2)c(S(C)(=O)=O)c1 , give its reported melting point.
155 to 156 °C

For the molecule CCOC(=O)COc1ccc(-c2ccc(Cl)c(C(=O)NCC34CC5CC(CC(C5)C3)C4)c2)cc1 , give its reported melting point.
136 to 140 °C

For the molecule CCOC(=O)Oc1ccc(C=CC(=O)NC2CCCNC(=O)C2)cc1 (stereo not given) , give its reported melting point.
209 to 210 °C

For the molecule OC1(c2ccc(F)cc2)Cc2ccccc2C2=NCCN21 (stereo not given) , give its reported melting point.
150 to 151 °C

For the molecule CS(=O)(=O)NC(=O)NCCCc1ccc2c(NC(=O)CC3CCCCC3)c(Cl)ccc2n1 , give its reported melting point.
151 to 152 °C

For the molecule CNC(=NCCSCc1[nH]cnc1C)P(=O)(O)OC , give its reported melting point.
170 to 171 °C

For the molecule CCOC(=O)C(=O)Nc1cc(NC(C)=O)ccc1O , give its reported melting point.
> 300 °C

For the molecule COc1ccc(Oc2c(OC)cc(N)c3nccc(C)c23)cc1 , give its reported melting point.
185 to 187 °C

For the molecule CNC(=O)[C@@H]1CCC[C@@H]1Nc1nc(Nc2cc3c(cc2OC)CCN(CC(=O)N(C)C)CC3)ncc1Cl (relative stereo) , give its reported melting point.
240 °C

For the molecule Cc1ccc(S(=O)(=O)N2CC2CCOS(C)(=O)=O)cc1 (stereo not given) , give its reported melting point.
78 to 80 °C

For the molecule O=C(NCC1CC1)c1c(NC(=O)c2cc(C(F)(F)F)nn2-c2ncccc2Cl)c(Br)cc2cn[nH]c12 , give its reported melting point.
144 to 150 °C

For the molecule O=c1[nH]c(=O)n(C2CC(O)C(CF)O2)cc1C=CBr (stereo not given) , give its reported melting point.
208 °C

For the molecule Cn1cccc1C1=CC(=O)c2nccnc2C1=O , give its reported melting point.
161 to 162 °C

For the molecule CCC1CC(=O)N(Cc2ccc(NC(C)=O)cc2)N=C1c1ccc(OC)c(OC)c1 (stereo not given) , give its reported melting point.
133 °C

For the molecule CSc1cc(-c2ccccc2)ccc1C1=NC(C)(C)CO1 , give its reported melting point.
93 to 95 °C

For the molecule O=C(CCCCCc1ccc(Cl)cc1)Nc1ccc(C(=O)O)cc1 , give its reported melting point.
218 to 220 °C

For the molecule COc1ccc(C2c3cc(NC(=O)CC(C)(C)C)c(C)c(C)c3OC2(C)C)cc1 (stereo not given) , give its reported melting point.
169 to 170 °C

For the molecule COc1ccc2cc(C#CC(C)N(O)C(N)=O)ccc2c1 (stereo not given) , give its reported melting point.
181 to 183 °C

For the molecule CNC(=O)OC(C)C(=O)Nc1ccc(C2=NNC(=O)CC2C)cc1 (stereo not given) , give its reported melting point.
96 to 98 °C

For the molecule Cc1ccc(N2CCN(c3ccc(C(C)(C)O)nc3-c3ccc(C(C)C)cc3)CC2)cc1 , give its reported melting point.
130 to 133 °C

For the molecule Nc1cccc(-c2ccc(CCN3CCC4(CC3)NC(=O)N(CCc3ccccc3)C4=O)cc2)n1 , give its reported melting point.
176 to 180 °C

For the molecule CNCC1CN(c2ccc3ccccc3c2)C(=O)O1 (stereo not given) , give its reported melting point.
76.5 to 78 °C

For the molecule O=C(Nc1ccc(Cl)c(C(F)(F)F)c1)Oc1ccc2c(c1)CCCN2 , give its reported melting point.
150 °C

For the molecule CC(=O)Nc1nn(C)c2nc3n(c(=O)c12)CCS3 , give its reported melting point.
250 to 252 °C

For the molecule Cc1ccc(S(=O)(=O)NC(=O)Nc2nc(-c3ccccc3)c(-c3ccc(=O)n(C(C)C)n3)s2)cc1 , give its reported melting point.
172 to 174 °C

For the molecule COc1ccc2cc3c(c(-c4ccc5c(c4)OCO5)c2c1OC)CNC3=O , give its reported melting point.
255 to 256 °C

For the molecule OC1(C(c2ccccc2F)n2cccc2)CCN(Cc2ccccc2)C1 (stereo not given) , give its reported melting point.
87 to 89 °C

For the molecule CC(C)C(=O)C(O)(Cc1ccc(Cl)cc1Cl)c1cccnc1 (stereo not given) , give its reported melting point.
144 to 145 °C

For the molecule Cc1ncc(CSC(=O)c2cccc(C(=O)SCc3cnc(C)c4c3COC(C)(C)O4)c2)c2c1OC(C)(C)OC2 , give its reported melting point.
125 to 127 °C

For the molecule CC(C)(C)c1ccc2c(c1)[C@H]1Cc3ccccc3[C@H]1N2 (relative stereo) , give its reported melting point.
103 to 105 °C

For the molecule COc1ccc(-c2c3c(cc4ccc(OC)cc24)C(=O)NC3=O)cc1 , give its reported melting point.
290 to 292 °C

For the molecule O=C(O)c1ccc(-c2ccnnc2)cc1 , give its reported melting point.
> 330 °C

For the molecule CC(=O)NC(C)Cc1cc2c(cc1CCl)OCO2 (stereo not given) , give its reported melting point.
132 to 133 °C

For the molecule CNC(=O)c1ccc(Nc2nc(OCC3CCCCC3)c3nc[nH]c3n2)cc1 , give its reported melting point.
139 to 142 °C

###

Readout name: melting point

For the compound O=C1Nc2cc(Cl)cc(Cl)c2C1=O , give its reported melting point.
228 to 230 °C

For the compound Nn1c(=O)cc2n(C3CC3)c3cc(N4CCNCC4)c(F)cc3n2c1=O , give its reported melting point.
232 to 234 °C

For the compound N#Cc1ccc(C(F)(F)F)cn1 , give its reported melting point.
36 to 38 °C

For the compound COC(=O)c1ccc(NC(=O)CCc2c(C)noc2-c2ccccc2)cc1 , give its reported melting point.
140 to 141 °C

For the compound COC(=O)c1c2snnc2nn1C , give its reported melting point.
115 to 121 °C

For the compound Cc1cc2cccc(Br)c2nc1C , give its reported melting point.
78 °C

For the compound C#CC1CC2(CC#CC)C(O)CCC2C2C=CC3=CC(=O)CCC3C12 (stereo unspecified) , give its reported melting point.
195 to 198 °C

For the compound CCC(C(=O)OC)c1cccc(C(=O)c2cc3cc(C(=O)OC)sc3s2)c1 (stereo unspecified) , give its reported melting point.
143 °C

For the compound c1ccc2c(c1)OCCc1c-2n(CCCCCCN2CCCCC2)c2ccccc12 , give its reported melting point.
110 °C

For the compound CCOC(=O)CCC(=O)c1ccc(CCNS(=O)(=O)c2cccc(C(F)(F)F)c2)cc1 , give its reported melting point.
83 to 85 °C

For the compound CC(=O)Nc1ccc2c3c(cccc13)CC2 , give its reported melting point.
180 to 186 °C

For the compound CC(=O)c1ccc(CNC(=O)OC(C)(C)C)cc1 , give its reported melting point.
73 to 75 °C

For the compound O=C(c1ccc(C(F)(F)F)cc1)c1cccc(O)c1 , give its reported melting point.
130 °C

For the compound CC(=O)N1CCC(=O)C(C(c2ccc(Cl)cc2)c2ccc(Cl)cc2)C1 (stereo unspecified) , give its reported melting point.
169 to 171 °C

For the compound Cc1cc2c(cc1Br)-c1cc(C)c(Br)c(C)c1OP2(=O)O , give its reported melting point.
240 °C

For the compound COC(=O)C1Cc2c([nH]c3ccccc23)C(c2ccccc2Cl)N1 (stereo unspecified) , give its reported melting point.
154 °C

For the compound CCCc1c(OCC(O)COc2ccc3c(C)c(CC(=O)O)c(=O)oc3c2)ccc(C(C)=O)c1O (stereo unspecified) , give its reported melting point.
130 °C

For the compound CCOc1cc2cc(CO)nc(-c3ccnc(-n4nc(-c5cc(OC)c(OC)c(OC)c5)c5sccc5c4=O)c3)c2cc1OCC , give its reported melting point.
250 to 251 °C

For the compound CN(C=C(S(=O)(=O)c1ccccc1)S(=O)(=O)c1ccccc1)c1ccc(Cl)cn1 , give its reported melting point.
205 to 206 °C

For the compound Cc1cccc(C2=CCN(CCCn3c(=O)[nH]c4c(Cl)cccc4c3=O)CC2)c1 , give its reported melting point.
214 to 216 °C

For the compound c1ccc(C(N=C2NCCCN2)c2ccccc2)cc1 , give its reported melting point.
238 to 242 °C
